experimentSummary: folding stability dG unfold (combined trypsin and chymotrypsin); higher = more stable
Catalogue of sequences with associated folding stability dG unfold
Form entry: value (kcal/mol) — number only.

These solved cases illustrate the format of a correct answer.
| inputSequence | resultValue |
| --- | --- |
| SAGGSAGGSTVEEELLEKAAAAHPPGTTLTVDVVIVDPNNPVPIGTRTVTITVNADGSYTVVDSAGGSAGGS [r20_151_JUSTAS] | 2.46 |
| SAGGSAGGSAEKVITVWIPLPPGQGVDEIAKEIARYLGFPNIKIDNIQYDPEDGWYQITFKLSAGGSAGGSA [r18_481_TrROS] | 3.97 |
| SAGGSAGGMFYVVRLEGPDGPLRTLVRPAESLEEARAFAEALAPEGARVTVEPLEEEEAERLLGSAGGSAGG [r6_267_TrMRF] | 2.13 |
| SEEEYLVIEVEFEVENPEEAREFAERLARELPLDEIESLEVEVEPREVFVEGEPVGPVYRFRVRAVVRPRSA [r9_605_TrMRF] | 2.77 |
| SAGGSAGGFIEYDPKTGTITVTFPSSVSPEDVRAAIEAAGFPATPVAYSYDPSPPVRTVTFKVASAGGSAGG [r6_396_JUSTAS] | 1.06 |

q: Can you look up the measured folding stability dG unfold of SAGGSAGGSTLTVEIQITDADGNTLTAKVTLTFEPAPPPPPPPTVERRTTTVDGKTVTEYRRLSAGGSAGGS [r12_128_TrROS_Hall] for me?
a: 0.969
